- target: T1, human PD-L1 (construct not stated) (human, UniProt Q9NZQ7 19-239, limits assumed)
- T1 construct: also called B7-H1 (PD-L1); PD-L1 protein
- T1 sequence (Q9NZQ7 19-239 limits assumed): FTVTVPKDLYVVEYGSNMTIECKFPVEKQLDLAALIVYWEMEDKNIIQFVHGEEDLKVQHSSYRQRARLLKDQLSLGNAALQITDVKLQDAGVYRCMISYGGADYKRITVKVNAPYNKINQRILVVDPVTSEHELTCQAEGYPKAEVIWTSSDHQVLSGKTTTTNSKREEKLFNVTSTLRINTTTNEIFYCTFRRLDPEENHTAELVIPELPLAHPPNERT
- experiment description: SPR Biacore, affinity ranking
The entries below are paired with their reported kon.
Numeric only. Scale: M⁻¹ s⁻¹

Recorded kon, per entry:
{"binder": "B3 (antibody, V domains shown) VH: EVQLVESGGGLVQPGGSLRLSCAASGFTFSSYDMSWVRQAPGKSLEWVATISDAGGYIYYRDSVKGRFTISRDNAKNSLYLQMNSLRDEDTAVYICAREFGKRYALDYWGQGTTVTVSS VL: DIQMTQSPSSLSASVGDRVTITCKAKQDVTPAVAWYQQKPGKAPKLLIYSTSSRYTGVPSRFSGSGSGTDFTFTISSLQPEDIATYYCMQHYTTPLTFGQGTKLEIK", "kon / M⁻¹ s⁻¹": 119000}
{"binder": "B6 (antibody, V domains shown, also called B6 monoclonal antibody) VH: EVQLVESGGGLVQPGGSLRLSCAASGFTFSSYDMSWVRQAPGKSLEWVATISDAGGYIYYRDSVKGRFTISRDNAKNSLYLQMNSLRDEDTAVYICARELPWRYALDYWGQGTTVTVSS VL: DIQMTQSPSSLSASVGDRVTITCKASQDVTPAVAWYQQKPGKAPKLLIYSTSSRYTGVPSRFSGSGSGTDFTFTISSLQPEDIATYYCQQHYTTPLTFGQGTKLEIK", "kon / M⁻¹ s⁻¹": 242000}

// next entry
Given item A1 (antibody, V domains shown) VH: EVQLVESGGGLVQPGGSLRLSCAASGFTFSSYDMSWVRQAPGKSLEWVATISDAGGYIYYRDSVKGRFTISRDNAKNSLYLQMNSLRDEDTAVYICARELLHRYALDYWGQGTTVTVSS VL: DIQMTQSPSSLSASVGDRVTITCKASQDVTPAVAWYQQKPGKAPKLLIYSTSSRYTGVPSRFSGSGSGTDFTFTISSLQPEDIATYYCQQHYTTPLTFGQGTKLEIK , the value recorded as its kon is 203000
